Molecular target: T1, PUF4 RNA-binding domain (Saccharomyces cerevisiae, UniProt P25339 537-888)
T1 sequence: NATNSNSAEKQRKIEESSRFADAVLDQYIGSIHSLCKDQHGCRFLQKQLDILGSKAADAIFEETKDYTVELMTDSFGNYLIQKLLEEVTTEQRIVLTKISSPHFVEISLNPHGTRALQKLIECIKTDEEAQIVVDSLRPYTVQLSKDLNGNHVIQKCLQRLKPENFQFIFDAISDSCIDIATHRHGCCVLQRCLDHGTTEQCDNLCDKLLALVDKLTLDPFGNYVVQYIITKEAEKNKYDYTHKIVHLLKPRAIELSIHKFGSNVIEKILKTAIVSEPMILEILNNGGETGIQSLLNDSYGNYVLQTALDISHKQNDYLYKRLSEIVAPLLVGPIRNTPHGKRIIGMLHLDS
Assay: Mg; RNA-MaP; 20 mM Na-HEPES pH 7.4, 30 mM KOAc, 0.75 mM MgCl2, 0.1% Tween-20, 5% glycerol, 0.1 mg/mL BSA, 2 mM DTT; 25 C; 0.0125-409.6 nM protein
Details: tags: N-His6-TEV cleaved; C-SNAP kept, Cy3B-labelled; label: tethered on chip by stalled RNA polymerase
// classify: if (Kd < 30 nM) 1 (yes) else 0 (no)

{"Binder": "Ib_S4_P4E.1_K4.1_C4.1_H4.1_[T1A]_A4.1_[T5A]_F4.1_T4.1 (ssRNA) RNA: UUUGACAACUGAUCGUUCUUUCUAGUAAAUUAUUCUUUCUCGAUCAGUUGUCUUU", "Classification": "0 (no)"}
{"Binder": "Ie_S2_P4E.1_K4.1_C4.1_H4.1_[+1CCCT]_A4.1_F4.1_T4.1 (ssRNA) RNA: UUUGAUUAAUAUGAUAUCGUUCUUUCUUCCCUGUAUAUUAUUCUUUCUCGAUAUCAUAUUAAUCUUU", "Classification": "1 (yes)"}
{"Binder": "Id_ii_S2_P5E.4_K5.3_C5.2_[C-2T]_[T-1C]_H5.3_A5.1_F5.1_T5.2 (ssRNA) RNA: UUUGAUUAAUAUGAUAUCGUUCUUUCUUCACACUUAUUAUAUUCUUUCUCGAUAUCAUAUUAAUCUUU", "Classification": "0 (no)"}

Is Kd of UCUCUUUGCAUUUUUAUCUCUU (ssRNA) [Ib_S1_P5E.1_K5.1_C5.1_H5.1_[T3C]_A5.1_[A7T]_F5.1_T5.1] strictly below 30 nM?
0 (no)

Please indicate whether the reported Kd of Ib_S4_P4E.1_K4.1_C4.1_H4.1_[T1G]_A4.1_[T5C]_F4.1_T4.1 (ssRNA) RNA: UUUGACAACUGAUCGUUCUUUCUGGUACAUUAUUCUUUCUCGAUCAGUUGUCUUU is strictly below 30 nM.
0 (no)

Strictly below 30 nM in Kd? Id_ii_S2_P3E.4_K3.3_C3.2_[C-2A]_H3.3_A3.1_F3.1_T3.2_[T9C]_[A10G] (ssRNA) RNA: UUUGAUUAAUAUGAUAUCGUUCUUUCUAUACACUAUACGUUCUUUCUCGAUAUCAUAUUAAUCUUU
0 (no)
